Origin of values: ChEMBL document CHEMBL1130591

Molecular target: Calpain-1 catalytic subunit (Homo sapiens)
Sequence (P07384 whole entry): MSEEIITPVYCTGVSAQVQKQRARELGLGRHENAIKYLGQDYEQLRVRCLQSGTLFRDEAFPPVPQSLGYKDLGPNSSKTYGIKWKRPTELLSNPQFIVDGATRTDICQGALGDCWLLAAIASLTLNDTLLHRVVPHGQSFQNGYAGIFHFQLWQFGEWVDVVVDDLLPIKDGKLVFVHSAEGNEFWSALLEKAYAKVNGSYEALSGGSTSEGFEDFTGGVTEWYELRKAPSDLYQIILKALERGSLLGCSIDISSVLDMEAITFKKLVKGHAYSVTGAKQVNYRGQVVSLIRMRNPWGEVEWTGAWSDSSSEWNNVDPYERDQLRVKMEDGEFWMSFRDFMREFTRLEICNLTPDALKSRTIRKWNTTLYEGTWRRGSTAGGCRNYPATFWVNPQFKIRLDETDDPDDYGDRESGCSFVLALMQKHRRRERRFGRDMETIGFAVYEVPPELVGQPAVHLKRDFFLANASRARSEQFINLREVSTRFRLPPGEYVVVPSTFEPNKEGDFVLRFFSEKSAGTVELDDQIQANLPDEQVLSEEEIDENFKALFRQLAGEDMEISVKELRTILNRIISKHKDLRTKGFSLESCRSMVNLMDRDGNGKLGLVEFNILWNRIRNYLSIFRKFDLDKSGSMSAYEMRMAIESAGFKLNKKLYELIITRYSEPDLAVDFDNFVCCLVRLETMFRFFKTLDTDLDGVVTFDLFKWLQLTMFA
Assay: Compound was tested for inhibitory activity against recombinant human Calpain 1
Residues, ends and D or L forms follow the SMILES beside them. *: point of attachment. Ms = CS(=O)(=O)*
Labelling field: enter met if recorded IC50 is less than 40 nM. Enter not met if it equals or exceeds that cut-off.

molecule: CS(=O)(=O)N1CCC[C@H]1C(=O)N[C@H](C=O)Cc1ccccc1 (Ms-Pro-Phe-aldehyde)
qualitative.label: not met
//
molecule: Cc1ccc(S(=O)(=O)N2C[C@H](NC(=O)C(F)(F)F)CC2C(=O)N[C@H](C=O)Cc2ccccc2)cc1 (single isomer, unassigned)
qualitative.label: not met
//
molecule: O=C[C@H](Cc1ccccc1)NC(=O)[C@@H]1C[C@@H](OS(=O)(=O)c2ccccc2)CN1S(=O)(=O)c1ccccc1
qualitative.label: met
//
molecule: Cc1ccc(S(=O)(=O)N2C[C@H](C#N)CC2C(=O)N[C@H](C=O)Cc2ccccc2)cc1 (single isomer, unassigned)
qualitative.label: met
//
molecule: O=C[C@H](Cc1ccccc1)NC(=O)[C@@H]1C[C@@H](OCc2ccccc2)CN1S(=O)(=O)c1ccccc1
qualitative.label: not met
